Test system: human leukaemia HEL cell line
Assay: MTT in vitro cytotoxicity assay, HEL
Type: cell-based
Conditions: 48 h, read-out: IC50 (µM) HEL
measured metric: IC50

// query Reported IC50, compound COc1ccc2cc1Oc1ccc(cc1)C[C@H]1c3cc(c(OC)cc3CCN1C)Oc1c(O)c(OC)cc3c1[C@H](C2)N(C)CC3 : ____
// result 8.95 µM

###

Tested on: human leukaemia HEL cell line
Assay: MTT in vitro cytotoxicity assay, HEL
Type: cell-based
Conditions: MTT assay after 48 h of treatment, averaged from at least 3 independent experiments, variation ±10%, read-out: IC50 (µM) HEL
Binary label based on IC50 with cut-off 4 µM: below gives true (1), not below gives false (0).

>  <compound>
CC[C@]1(O)C[C@H]2CN(CCc3c([nH]c4ccccc34)[C@@](C(=O)OC)(c3cc4c(cc3OC)N(C=O)[C@H]3[C@@](O)(C(=O)OC)[C@H](OC(C)=O)[C@]5(CC)C=CCN6CC[C@]43[C@@H]65)C2)C1 [Vincristine, reference compound]

>  <discrete label>
false (0)

$$$$
>  <compound>
COc1ccc2cc1Oc1ccc(cc1)C[C@H]1c3cc(c(OC)cc3CCN1C)Oc1c(OC(C)=O)c(OC)cc3c1[C@H](C2)N(C)CC3

>  <discrete label>
true (1)

$$$$
>  <compound>
C=CCOc1c(OC)cc2c3c1Oc1cc4c(cc1OC)CCN(C)[C@H]4Cc1ccc(cc1)Oc1cc(ccc1OC)C[C@@H]3N(C)CC2

>  <discrete label>
false (0)

$$$$
>  <compound>
COc1ccc2cc1Oc1ccc(cc1)C[C@H]1c3cc(c(OC)cc3CCN1C)Oc1c(OS(=O)(=O)c3ccc(C)cc3)c(OC)cc3c1[C@H](C2)N(C)CC3

>  <discrete label>
true (1)

$$$$
>  <compound>
COc1cc([N+](=O)[O-])c2cc1Oc1ccc(cc1)C[C@H]1c3cc(c(OC)cc3CCN1C)Oc1c(OC(=O)c3ccccc3)c(OC)cc3c1[C@H](C2)N(C)CC3

>  <discrete label>
true (1)

$$$$
>  <compound>
COc1ccc2cc1Oc1ccc(cc1)C[C@H]1c3cc(c(OC)cc3CCN1C)Oc1c(OC(=O)c3ccccc3)c(OC)cc3c1[C@H](C2)N(C)CC3

>  <discrete label>
true (1)

$$$$

In the following, a different compound is considered.
// query # TODO verify IC50 < 4 µM strictly for this compound: COc1cc([N+](=O)[O-])c2cc1Oc1ccc(cc1)C[C@H]1c3cc(c(OC)cc3CCN1C)Oc1c(OCc3ccccc3)c(OC)cc3c1[C@H](C2)N(C)CC3
// result false (0)
